target: UniProt P28223; assay: Serotonin 5-HT2A in vitro radioligand binding competition assay; set-up: purchased Epics Therapeutics S.A. (Belgium), contract assay FAST-0505B; host or cells: membrane extracts; conditions: benzothiophenes; [3H]-DOI radiotracer, membrane extracts; read-out: 5HT2A R[…] ACTIVITY
Sequence (P28223 whole entry): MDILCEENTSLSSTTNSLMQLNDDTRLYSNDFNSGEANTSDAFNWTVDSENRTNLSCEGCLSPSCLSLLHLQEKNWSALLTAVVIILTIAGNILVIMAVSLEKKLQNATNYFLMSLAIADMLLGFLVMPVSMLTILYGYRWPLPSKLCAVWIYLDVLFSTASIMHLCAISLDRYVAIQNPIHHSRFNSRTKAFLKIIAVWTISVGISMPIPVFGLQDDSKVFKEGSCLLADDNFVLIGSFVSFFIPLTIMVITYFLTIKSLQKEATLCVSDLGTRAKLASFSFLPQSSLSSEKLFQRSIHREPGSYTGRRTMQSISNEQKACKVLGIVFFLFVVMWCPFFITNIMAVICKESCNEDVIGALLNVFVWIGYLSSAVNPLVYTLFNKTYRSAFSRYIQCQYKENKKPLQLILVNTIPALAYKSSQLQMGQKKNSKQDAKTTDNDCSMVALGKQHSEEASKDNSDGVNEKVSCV
quantity measured: IC50

{"smiles record": "CN1CCc2sc3cc(F)ccc3c2CC1", "subject of test": "UniProt P28223", "IC50": "0.01 to 0.1 µM"}

QUERY: Look at this molecule and give its reported IC50. `CN1CCc2sc3ccccc3c2CC1`
RESULT: 0.01 to 0.1 µM

QUERY: Look at this molecule and give its reported IC50. `FC(F)(F)Oc1cccc2sc3c(c12)CCNCC3`
RESULT: 0.01 to 0.1 µM

QUERY: Look at this molecule and give its reported IC50. `c1ccc2c3c(sc2c1)CCN(C1CCC1)CC3`
RESULT: 0.101 to 1 µM

QUERY: Look at this molecule and give its reported IC50. `Oc1ccc2c3c(sc2c1)CCNCC3`
RESULT: 0.01 to 0.1 µM

QUERY: Look at this molecule and give its reported IC50. `CN1CCc2sc3cc(OCc4ccccc4)ccc3c2CC1`
RESULT: 0.101 to 1 µM

QUERY: Look at this molecule and give its reported IC50. `COc1ccc2c3c(sc2c1)CCN(C)CC3`
RESULT: 1 to 10 µM

QUERY: Look at this molecule and give its reported IC50. `c1ccc2c3c(sc2c1)CCNCC3`
RESULT: 0.01 to 0.1 µM

QUERY: Look at this molecule and give its reported IC50. `FC(F)(F)CN1CCc2sc3ccccc3c2CC1`
RESULT: > 10 µM

QUERY: Look at this molecule and give its reported IC50. `Fc1ccc2c3c(sc2c1)CCN(C1CCC1)CC3`
RESULT: 0.01 to 0.1 µM

QUERY: Look at this molecule and give its reported IC50. `COc1ccc2c3c(sc2c1)CCN(C1CCC1)CC3`
RESULT: > 10 µM

QUERY: Look at this molecule and give its reported IC50. `FC(F)(F)Oc1cccc2sc3c(c12)CCN(C1CCC1)CC3`
RESULT: 1 to 10 µM

QUERY: Look at this molecule and give its reported IC50. `COc1ccc2c3c(sc2c1)CCN(CC(F)(F)F)CC3`
RESULT: > 10 µM

QUERY: Look at this molecule and give its reported IC50. `Fc1ccc2c3c(sc2c1)CCN(CC(F)(F)F)CC3`
RESULT: > 10 µM

QUERY: Look at this molecule and give its reported IC50. `COc1ccc2c3c(sc2c1)CCNCC3`
RESULT: 1 to 10 µM

QUERY: Look at this molecule and give its reported IC50. `c1ccc(COc2ccc3c4c(sc3c2)CCNCC4)cc1`
RESULT: 1 to 10 µM

QUERY: Look at this molecule and give its reported IC50. `Fc1ccc2c3c(sc2c1)CCNCC3`
RESULT: 0.01 to 0.1 µM

QUERY: Look at this molecule and give its reported IC50. `c1ccc(COc2ccc3c4c(sc3c2)CCN(C2CCC2)CC4)cc1`
RESULT: 1 to 10 µM

QUERY: Look at this molecule and give its reported IC50. `FC(F)(F)Oc1ccc2c3c(sc2c1)CCNCC3`
RESULT: 0.101 to 1 µM

QUERY: Look at this molecule and give its reported IC50. `CN1CCc2sc3cc(OC(F)(F)F)ccc3c2CC1`
RESULT: 1 to 10 µM

QUERY: Look at this molecule and give its reported IC50. `FC(F)(F)Oc1ccc2c3c(sc2c1)CCN(C1CCC1)CC3`
RESULT: 1 to 10 µM

Numbers sourced from patent US20250051346A1.
